Consider the following sequences; for each one, report its protein stability index.
- Tested on: Saccharomyces cerevisiae;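 note: PSI is a weighted mean of sequencing reads over stability bins, variants kept only with over 10 reads, mCherry proximal and sfGFP distal, peptide attached via GGGS linker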
- test summary: protein stability index of tFT-peptide fusion (C-terminal peptide) (PSI (0-1 scale)); higher = more stable (slower turnover)
- study conditions: genetic background: das1 deletion; temperature: 30 C
Please reply with the number alone, leaving off any unit.

Task: Fill in: protein stability index of PWEYSSQLVLVI is ___
Output: 0.179

Task: Next: LRFYLLTPPSPA
Output: 0.481

Task: Next: CLEHLVYCRLAS
Output: 0.555

Task: Next: PCLPLTPMWTLF
Output: 0.678

Task: Next: VRRFNVLLYVRG
Output: 0.311

Task: Next: LFSVFSLVLFIF
Output: 0.34

Task: Next: GLLLLGIRLKWG
Output: 0.208

Task: Next: TLPIWLRVLIFG
Output: 0.295

Task: Next: RIAIRSAVICAS
Output: 0.276

Task: Next: WLVCAGWVVLSC
Output: 0.187

Task: Next: GVVWPLGWVWVE
Output: 0.614

Entry source: the supplement of paper PMC10724198
